Measured pIC50 values are reported for all entries that follow.
ASSAY_SYSTEM: MCT1 (Homo sapiens, UniProt P53985)
Construct: BT-20 cells—a triple negative human breast cancer cell line expressing exclusively MCT1 (confirmed by Western blotting)
Sequence (P53985 whole entry): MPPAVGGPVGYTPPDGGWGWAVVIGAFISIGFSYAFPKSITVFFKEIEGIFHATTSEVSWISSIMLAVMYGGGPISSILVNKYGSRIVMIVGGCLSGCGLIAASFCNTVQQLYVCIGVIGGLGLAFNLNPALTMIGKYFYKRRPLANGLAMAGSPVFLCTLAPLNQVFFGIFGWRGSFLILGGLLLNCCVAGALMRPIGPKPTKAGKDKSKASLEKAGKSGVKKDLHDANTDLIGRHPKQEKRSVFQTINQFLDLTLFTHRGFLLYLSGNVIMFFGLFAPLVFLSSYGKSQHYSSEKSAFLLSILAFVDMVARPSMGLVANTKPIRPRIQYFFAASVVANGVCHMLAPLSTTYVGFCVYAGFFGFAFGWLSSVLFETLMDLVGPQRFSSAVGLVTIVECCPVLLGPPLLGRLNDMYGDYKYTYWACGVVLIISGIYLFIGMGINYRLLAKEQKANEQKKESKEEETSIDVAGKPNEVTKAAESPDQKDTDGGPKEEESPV
Sequence (P35613 140-385 partner limits assumed): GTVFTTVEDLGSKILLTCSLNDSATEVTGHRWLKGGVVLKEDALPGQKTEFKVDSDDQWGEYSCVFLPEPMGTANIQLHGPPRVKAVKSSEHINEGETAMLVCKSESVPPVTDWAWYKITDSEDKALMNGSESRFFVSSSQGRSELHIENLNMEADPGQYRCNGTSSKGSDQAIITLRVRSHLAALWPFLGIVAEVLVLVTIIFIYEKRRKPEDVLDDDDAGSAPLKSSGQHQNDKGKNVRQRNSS
ASSAY_TEXT: MCT1 transport assay (L-lactate influx, BCECF-AM intracellular pH)
REPORTED_CONDITIONS: BT-20 cells expressing exclusively MCT1
pIC50: −log10 of the molar value.

TEST_SMILES: Cc1cc2nc(C)c(O[C@@H]3CCN(c4ccc(-c5ccc(C(=O)N6CCOCC6)nn5)cc4)C3)c(C)n2n1
pIC50: < 6.00
--
TEST_SMILES: Cc1nc2nc(C)c(C)n2c(C)c1O[C@@H]1CCN(c2ccc(-c3ccc(CN4CCOCC4)nn3)cc2)C1
pIC50: < 6.00
--
TEST_SMILES: COC1CN(CC23CC(c4ncc(N5CC[C@@H](Oc6c(C)nc7nc(C)nn7c6C)C5)cn4)(C2)C3)C1
pIC50: < 6.00
--
TEST_SMILES: Cc1nc2nc(C)c(O[C@@H]3CCN(c4ccc([C@H]5CC[C@H](C(=O)N6CC7(COC7)C6)CC5)cc4)C3)c(C)n2n1
pIC50: < 6.00
--
TEST_SMILES: Cc1nc2nc(C)c(O[C@@H]3CCN(c4ccc([C@H]5CC[C@H](C(=O)N6CCOCC6)CC5)cc4)C3)c(C)n2n1
pIC50: < 6.00
--
TEST_SMILES: Cc1nc2nc(C)c(O[C@@H]3CCN(c4cnc(C56CC(C(=O)N7CCOCC7)(C5)C6)nc4)C3)c(C)n2n1
pIC50: < 6.00
--
TEST_SMILES: Cc1cn2c(C)c(O[C@@H]3CCN(c4ccc(-c5ccc(CN6CCOCC6)nn5)cc4)C3)c(C)nc2n1
pIC50: < 6.00
--
TEST_SMILES: Cc1nc2nc(C)c(O[C@@H]3CCN(c4cnc(C56CC(CN7CCOCC7)(C5)C6)nc4)C3)c(C)n2n1
pIC50: < 6.00
--
TEST_SMILES: COC1CN(Cc2ccc(-c3ccc(N4CC[C@@H](Oc5c(C)nc6nc(C)nn6c5C)C4)cc3)nn2)C1
pIC50: < 6.00
--
TEST_SMILES: Cc1nc2nc(C)c(O[C@@H]3CCN(c4ccc(-c5ccc(C(=O)N6CC(S(C)(=O)=O)C6)nn5)cc4)C3)c(C)n2n1
pIC50: < 6.00
--
TEST_SMILES: Cc1nc2nc(C)c(O[C@@H]3CCN(c4ccc(-c5ccc(CN6CC(C(N)=O)C6)nn5)cc4)C3)c(C)n2n1
pIC50: < 6.00
--
TEST_SMILES: Cc1cc2nc(C)c(O[C@@H]3CCN(c4ccc(-c5ccc(CN6CCOCC6)nn5)cc4)C3)c(C)n2n1
pIC50: < 6.00
--
TEST_SMILES: Cc1nc2nc(C)c(O[C@@H]3CCN(c4cnc(C56CCC(CN7CCOCC7)(CC5)CC6)nc4)C3)c(C)n2n1
pIC50: < 6.00
--
TEST_SMILES: Cc1nc2nc(C)c(O[C@@H]3CCN(c4ccc(-c5ccc(CN6CC(S(C)(=O)=O)C6)nn5)cc4)C3)c(C)n2n1
pIC50: < 6.00

* * *

ASSAY_SYSTEM: MCT4 (Homo sapiens)
Construct: MDA-MB-231 cells—a triple negative human breast cancer cell line expressing exclusively MCT4 (confirmed by Western blotting)
Sequence (O15427 2-465 limits assumed): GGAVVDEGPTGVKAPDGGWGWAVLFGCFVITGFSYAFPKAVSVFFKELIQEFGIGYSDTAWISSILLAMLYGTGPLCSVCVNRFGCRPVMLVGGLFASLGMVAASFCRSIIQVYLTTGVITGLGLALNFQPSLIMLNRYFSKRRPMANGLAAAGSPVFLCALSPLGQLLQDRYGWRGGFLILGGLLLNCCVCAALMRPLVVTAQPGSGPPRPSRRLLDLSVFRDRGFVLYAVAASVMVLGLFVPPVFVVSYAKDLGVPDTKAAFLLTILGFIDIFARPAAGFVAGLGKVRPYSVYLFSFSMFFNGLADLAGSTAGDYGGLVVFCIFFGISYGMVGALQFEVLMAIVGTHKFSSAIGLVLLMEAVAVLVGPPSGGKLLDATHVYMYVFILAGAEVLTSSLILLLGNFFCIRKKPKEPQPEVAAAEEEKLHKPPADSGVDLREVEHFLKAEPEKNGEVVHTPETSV
ASSAY_TEXT: MCT4 transport assay (L-lactate influx, BCECF-AM intracellular pH)
REPORTED_CONDITIONS: MDA-MB-231 cells expressing exclusively MCT4
Measured IC50 values are reported for all entries that follow.
ENDPOINT: IC50

TEST_SMILES: Cc1nc2nc(C)c(O[C@@H]3CCN(c4ccc([C@H]5CC[C@H](C(=O)N6CCOCC6)CC5)cc4)C3)c(C)n2n1
OBSERVED_MEASUREMENT: < 100 nM
--
TEST_SMILES: Cc1cc2nc(C)c(O[C@@H]3CCN(c4ccc(-c5ccc(CN6CCOCC6)nn5)cc4)C3)c(C)n2n1
OBSERVED_MEASUREMENT: < 100 nM
--
TEST_SMILES: COC1CN(C(=O)c2ccc(-c3ccc(N4CC[C@@H](Oc5c(C)nc6nc(C)nn6c5C)C4)cc3)nn2)C1
OBSERVED_MEASUREMENT: < 100 nM
--
TEST_SMILES: Cc1nc2nc(C)c(O[C@@H]3CCN(c4ccc([C@H]5CC[C@H](C(=O)N6CC7(COC7)C6)CC5)cc4)C3)c(C)n2n1
OBSERVED_MEASUREMENT: < 100 nM
--
TEST_SMILES: Cc1cc2nc(C)c(O[C@@H]3CCN(c4ccc(-c5ccc(C(=O)N6CCOCC6)nn5)cc4)C3)c(C)n2n1
OBSERVED_MEASUREMENT: < 100 nM
--
TEST_SMILES: Cc1nc2nc(C)c(O[C@@H]3CCN(c4ccc(-c5ccc(CN6CC7(COC7)C6)nn5)cc4)C3)c(C)n2n1
OBSERVED_MEASUREMENT: < 100 nM
--
TEST_SMILES: Cc1nc2nc(C)c(O[C@@H]3CCN(c4ccc(-c5ccc(C(=O)N6CC7(COC7)C6)nn5)cc4)C3)c(C)n2n1
OBSERVED_MEASUREMENT: < 100 nM
--
TEST_SMILES: Cc1nc2nc(C)c(O[C@@H]3CCN(c4ccc(-c5ccc(CN6CC(C(N)=O)C6)nn5)cc4)C3)c(C)n2n1
OBSERVED_MEASUREMENT: 100 to 499 nM
--
TEST_SMILES: Cc1nc2nc(C)c(O[C@@H]3CCN(c4ccc(-c5ccc(C(=O)N6CC(N(C)C)C6)nn5)cc4)C3)c(C)n2n1
OBSERVED_MEASUREMENT: < 100 nM
--
TEST_SMILES: Cc1nc2nc(C)c(C)n2c(C)c1O[C@@H]1CCN(c2ccc(-c3ccc(CN4CCOCC4)nn3)cc2)C1
OBSERVED_MEASUREMENT: > 1000 nM
--
TEST_SMILES: Cc1nc2nc(C)c(O[C@@H]3CCN(c4cnc(C56CC(C(=O)N7CC8(COC8)C7)(C5)C6)nc4)C3)c(C)n2n1
OBSERVED_MEASUREMENT: > 1000 nM
--
TEST_SMILES: COC1CN(CC23CC(c4ncc(N5CC[C@@H](Oc6c(C)nc7nc(C)nn7c6C)C5)cn4)(C2)C3)C1
OBSERVED_MEASUREMENT: < 100 nM
--
TEST_SMILES: Cc1nc2nc(C)c(O[C@@H]3CCN(c4cnc(C#CCN5CCOCC5)nc4)C3)c(C)n2n1
OBSERVED_MEASUREMENT: < 100 nM
--
TEST_SMILES: Cc1nc2nc(C)c(O[C@@H]3CCN(c4ccc(-c5ccc(CN6CC(S(C)(=O)=O)C6)nn5)cc4)C3)c(C)n2n1
OBSERVED_MEASUREMENT: < 100 nM
--
TEST_SMILES: Cc1nc2nc(C)c(O[C@@H]3CCN(c4ccc(-c5ccc(C(=O)N6CC(S(C)(=O)=O)C6)nn5)cc4)C3)c(C)n2n1
OBSERVED_MEASUREMENT: < 100 nM
--
TEST_SMILES: Cc1nc2nc(C)c(O[C@@H]3CCN(c4cnc(C56CC(CN7CC8(COC8)C7)(C5)C6)nc4)C3)c(C)n2n1
OBSERVED_MEASUREMENT: 500 to 1000 nM
--
TEST_SMILES: Cc1nc2nc(C)c(O[C@@H]3CCN(c4ccc(-c5ccc(CN6CC(C(=O)N(C)C)C6)nn5)cc4)C3)c(C)n2n1
OBSERVED_MEASUREMENT: < 100 nM
--
TEST_SMILES: Cc1nc2nc(C)c(O[C@@H]3CCN(c4cnc(C56CCC(CN7CCOCC7)(CC5)CC6)nc4)C3)c(C)n2n1
OBSERVED_MEASUREMENT: < 100 nM
--
TEST_SMILES: COC1CN(C(=O)C23CC(c4ncc(N5CC[C@@H](Oc6c(C)nc7nc(C)nn7c6C)C5)cn4)(C2)C3)C1
OBSERVED_MEASUREMENT: 500 to 1000 nM
--
TEST_SMILES: COC1CN(C(=O)[C@H]2CC[C@H](c3ccc(N4CC[C@@H](Oc5c(C)nc6nc(C)nn6c5C)C4)cc3)CC2)C1
OBSERVED_MEASUREMENT: < 100 nM

Ref: patent US20230192704A1
